target: Melanocortin receptor 4 (Homo sapiens, UniProt P32245, I102S); test: Agonist activity at human melanocortin-4 receptor I102S mutant expressed in HEK293 cells co-transfected with CRE/beta-galactosidase reporter gene assessed as stimulatory response after 6 hrs
Each entry below carries its recorded EC50.
measurement_type: EC50 (nM)

>  <entry_smiles>
CC(=O)N[C@@H](Cc1c[nH]cn1)C(=O)N[C@H](Cc1ccc(I)cc1)C(=O)N1Cc2ccccc2C[C@H]1C(=O)N[C@H](Cc1ccc([N+](=O)[O-])cc1)C(N)=O

>  <readout_value>
14

$$$$
>  <entry_smiles>
CC(=O)N[C@@H](CCCNC(=N)N)C(=O)N[C@H](Cc1ccc(I)cc1)C(=O)N[C@@H](CCCNC(=N)N)C(=O)N[C@@H](Cc1ccc(I)cc1)C(N)=O

>  <readout_value>
3.5

$$$$
>  <entry_smiles>
CC(=O)N[C@@H](Cc1c[nH]cn1)C(=O)N[C@H](Cc1ccc(Cl)cc1)C(=O)N1Cc2ccccc2C[C@H]1C(=O)N[C@H](Cc1ccc([N+](=O)[O-])cc1)C(N)=O

>  <readout_value>
3

$$$$
>  <entry_smiles>
CC(=O)N[C@@H](CCCNC(=N)N)C(=O)N[C@H](Cc1ccc(I)cc1)C(=O)N1Cc2ccccc2C[C@H]1C(=O)N[C@H](Cc1ccc([N+](=O)[O-])cc1)C(N)=O

>  <readout_value>
2.9

$$$$
>  <entry_smiles>
CC(=O)N[C@@H](CCCNC(=N)N)C(=O)N[C@H](Cc1ccc(Cl)cc1)C(=O)N1Cc2ccccc2C[C@H]1C(=O)N[C@H](Cc1ccc([N+](=O)[O-])cc1)C(N)=O

>  <readout_value>
4.4

$$$$
